The measurements presented in this section are drawn from patent US10562898B2.

# tested_target: α4β1 integrin (Homo sapiens, UniProt P05556+P13612)
# Construct: a cell line Jurkat, which is known to express α4β1 integrin; endogenous in cells; host or cells: Jurkat (human T cell line)
# Sequence (P13612 34-1032): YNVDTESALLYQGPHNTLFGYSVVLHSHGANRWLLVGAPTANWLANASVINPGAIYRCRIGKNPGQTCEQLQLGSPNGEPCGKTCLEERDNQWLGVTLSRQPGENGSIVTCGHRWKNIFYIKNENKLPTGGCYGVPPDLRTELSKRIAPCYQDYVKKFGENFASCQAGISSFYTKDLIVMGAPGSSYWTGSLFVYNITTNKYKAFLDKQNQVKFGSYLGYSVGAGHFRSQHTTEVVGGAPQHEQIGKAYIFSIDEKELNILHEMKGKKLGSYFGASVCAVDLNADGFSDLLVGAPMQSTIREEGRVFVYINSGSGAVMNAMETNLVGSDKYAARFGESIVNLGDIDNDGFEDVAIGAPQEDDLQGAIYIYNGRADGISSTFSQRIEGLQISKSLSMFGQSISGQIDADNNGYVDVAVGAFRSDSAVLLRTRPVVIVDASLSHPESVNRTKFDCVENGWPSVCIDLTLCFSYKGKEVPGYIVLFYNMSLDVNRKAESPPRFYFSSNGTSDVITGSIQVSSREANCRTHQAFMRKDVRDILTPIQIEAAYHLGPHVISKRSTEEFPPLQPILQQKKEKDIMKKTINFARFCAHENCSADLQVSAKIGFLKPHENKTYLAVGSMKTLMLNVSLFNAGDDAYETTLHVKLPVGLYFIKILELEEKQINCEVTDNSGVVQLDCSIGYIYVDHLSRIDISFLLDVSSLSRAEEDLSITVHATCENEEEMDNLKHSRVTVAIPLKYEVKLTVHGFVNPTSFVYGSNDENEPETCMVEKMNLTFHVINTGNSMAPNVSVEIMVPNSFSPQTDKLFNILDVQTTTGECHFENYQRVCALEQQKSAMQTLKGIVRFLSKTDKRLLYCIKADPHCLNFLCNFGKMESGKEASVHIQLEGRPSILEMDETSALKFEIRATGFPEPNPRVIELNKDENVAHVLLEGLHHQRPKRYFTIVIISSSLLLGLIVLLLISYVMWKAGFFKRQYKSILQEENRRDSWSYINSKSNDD
# Sequence (P05556 21-798): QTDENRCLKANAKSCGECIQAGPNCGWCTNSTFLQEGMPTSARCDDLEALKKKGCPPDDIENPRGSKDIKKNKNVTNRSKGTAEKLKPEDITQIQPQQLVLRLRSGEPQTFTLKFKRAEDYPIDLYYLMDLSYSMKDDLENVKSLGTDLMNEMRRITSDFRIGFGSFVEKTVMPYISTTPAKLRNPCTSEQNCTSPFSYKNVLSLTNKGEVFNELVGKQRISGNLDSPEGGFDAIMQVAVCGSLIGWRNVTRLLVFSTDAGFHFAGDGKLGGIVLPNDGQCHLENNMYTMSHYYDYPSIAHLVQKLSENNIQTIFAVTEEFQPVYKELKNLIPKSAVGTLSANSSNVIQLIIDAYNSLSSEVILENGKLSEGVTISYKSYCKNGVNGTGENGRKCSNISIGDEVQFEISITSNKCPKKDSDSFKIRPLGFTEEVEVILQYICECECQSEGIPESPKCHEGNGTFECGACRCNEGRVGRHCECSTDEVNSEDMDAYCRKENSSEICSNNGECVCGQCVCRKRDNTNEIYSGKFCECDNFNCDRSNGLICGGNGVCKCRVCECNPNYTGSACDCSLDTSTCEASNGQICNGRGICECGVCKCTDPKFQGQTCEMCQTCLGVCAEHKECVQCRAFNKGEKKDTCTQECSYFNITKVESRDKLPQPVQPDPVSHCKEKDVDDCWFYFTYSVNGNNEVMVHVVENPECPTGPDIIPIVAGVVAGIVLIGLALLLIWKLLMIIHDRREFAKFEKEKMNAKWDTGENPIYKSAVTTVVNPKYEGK
# protocol_details: VCAM-1/α4β1 integrin binding inhibitory activity evaluation test (Jurkat cells binding to VCAM-1/Fc)
# Type: cell-based
# protocol_conditions: recombinant human VCAM-1/Fc
property_label: log10 of IC50 (log10 of the value in nM)
Please keep in mind that the values are log10 of IC50 expressed in nM.

The reported log10 of IC50 of the compound CCC(CC)C(=O)Nc1ccc(S(=O)(=O)Nc2cc(F)c(C(=O)N[C@@H](Cc3ccc(-n4c(=O)c5ccncc5n(C)c4=O)cc3)C(=O)O)cc2F)cc1 was 3.38

get_value(item= Cn1c(=O)n(-c2ccc(C[C@H](NC(=O)c3cc(F)c(NS(=O)(=O)c4ccc(NC(=O)C(C)(C)CO)cc4)cc3F)C(=O)O)cc2)c(=O)c2ccncc21 , readout=log10 of IC50) returns 2.86

Measured log10 of IC50, Cc1c(C)n(C)c(=O)n(-c2ccc(C[C@H](NC(=O)c3cc(F)c(NS(=O)(=O)c4ccc(NC(=O)C(C)(C)C)cn4)cc3F)C(=O)O)cc2)c1=O : 2.57

Sure, the documented log10 of IC50 for Cc1cn(C)c(=O)n(-c2ccc(C[C@H](NC(=O)c3cc(F)c(NS(=O)(=O)c4ccc(NC(=O)C(C)(C)C)s4)cc3F)C(=O)O)cn2)c1=O is 4.32

Measured log10 of IC50 of Cn1c2c(c(=O)n(-c3ccc(C[C@H](NC(=O)c4cc(F)c(NS(=O)(=O)c5ccc(NC(=O)C(C)(C)C)cc5)cc4F)C(=O)O)cc3)c1=O)CCOC2 : 2.96

###

Provide the recorded pIC50 for the entries that follow.
# tested_target: α4β1 integrin (Homo sapiens, UniProt P05556+P13612)
# Construct: a cell line Jurkat, which is known to express α4β1 integrin; endogenous in cells
# protocol_details: VCAM-1/α4β1 integrin binding inhibitory activity evaluation test (Jurkat cells binding to VCAM-1/Fc)
# protocol_conditions: recombinant human VCAM-1/Fc
Please treat pIC50 as minus the base-10 logarithm of the molar concentration.

Per the reported α4β1 integrin (Homo sapiens, UniProt P05556+P13612) data, Cc1cn(C)c(=O)n(-c2ccc(C[C@H](NC(=O)c3cc(F)c(NS(=O)(=O)c4ccc(NC(=O)C(C)C)cc4)cc3F)C(=O)O)cn2)c1=O [Compound A71] has pIC50 of 4.82

Log: α4β1 integrin (Homo sapiens, UniProt P05556+P13612), compound Cn1ccc(=O)n(-c2ccc(C[C@H](NC(=O)c3cc(F)c(NS(=O)(=O)c4ccc(NC(=O)C(C)(C)C)cc4)cc3F)C(=O)O)nc2)c1=O [Compound A70] , pIC50 = 4.42

# pIC50 measured on α4β1 integrin (Homo sapiens, UniProt P05556+P13612) for item COC1(C(=O)Nc2ccc(S(=O)(=O)Nc3cc(F)c(C(=O)N[C@@H](Cc4ccc(-n5c(=O)c(C)c(C)n(C)c5=O)cc4)C(=O)O)cc3F)cc2)CC1 [Compound A17] = 5.89

Let me check: CC(=O)Nc1ccc(S(=O)(=O)Nc2cc(F)c(C(=O)N[C@@H](Cc3ccc(-n4c(=O)c5ccncc5n(C)c4=O)cc3)C(=O)O)cc2F)cc1 [Compound A2] , system α4β1 integrin (Homo sapiens, UniProt P05556+P13612), measured pIC50 is 5.96

Here Cc1c(C)n(C)c(=O)n(-c2ccc(C[C@H](NC(=O)c3cc(F)c(NS(=O)(=O)c4ccc(NC(=O)C(C)(C)C)nc4)cc3F)C(=O)O)cc2)c1=O [Compound A25] was tested on α4β1 integrin (Homo sapiens, UniProt P05556+P13612), and its pIC50 came to 5.64

Reading of pIC50 for Cn1c2c(c(=O)n(-c3ccc(C[C@H](NC(=O)c4cc(F)c(NS(=O)(=O)c5ccc(NC(=O)C(C)(C)C)cc5)cc4F)C(=O)O)cc3)c1=O)COCC2 [Compound A33] with α4β1 integrin (Homo sapiens, UniProt P05556+P13612): 6.00

###

# tested_target: α4β1 integrin (Homo sapiens, UniProt P05556+P13612)
# Construct: a cell line Jurkat, which is known to express α4β1 integrin; endogenous in cells
# protocol_details: VCAM-1/α4β1 integrin binding inhibitory activity evaluation test (Jurkat cells binding to VCAM-1/Fc)
# protocol_conditions: recombinant human VCAM-1/Fc
pIC50: −log10 of the molar value.
Answer rule not met if pIC50 is under 5, and rule met if it is 5 or more.

[ask] Given CCC(CC)C(=O)Nc1ccc(S(=O)(=O)Nc2cc(F)c(C(=O)N[C@@H](Cc3ccc(-n4c(=O)ccn(C)c4=O)nc3)C(=O)O)cc2F)cc1 [Compound A61] , state whether its pIC50 is at least 5.
[reply] rule not met

[ask] API: above_or_equal(metric=pIC50, cutoff=5) for item Cn1c2c(c(=O)n(-c3ccc(C[C@H](NC(=O)c4cc(F)c(NS(=O)(=O)c5ccc(NC(=O)C(C)(C)C)cc5)cc4F)C(=O)O)cn3)c1=O)COCC2 [Compound A44]
[reply] rule met

[ask] Is reported pIC50 greater than or equal to 5 here: Cc1c(C)n(C)c(=O)n(-c2ccc(C[C@H](NC(=O)c3cc(F)c(NS(=O)(=O)c4ccc(NC(=O)C5CCOCC5)cc4)cc3F)C(=O)O)cc2)c1=O [Compound A15]
[reply] rule met

[ask] Does the compound Cc1cn(C)c(=O)n(-c2ccc(C[C@H](NC(=O)c3cc(F)c(NS(=O)(=O)c4ccc(NC(=O)C5(C(F)(F)F)CC5)cc4)cc3F)C(=O)O)cn2)c1=O [Compound A56] have recorded pIC50 that is 5 or more?
[reply] rule not met

[ask] Answer whether pIC50 of Cc1c(C)n(C)c(=O)n(-c2ccc(C[C@H](NC(=O)c3cc(F)c(NS(=O)(=O)c4ccc(-n5ccc(C6CCOCC6)cc5=O)cc4)cc3F)C(=O)O)cc2)c1=O [Compound A34] is greater than or equal to 5.
[reply] rule met

[ask] Does Cc1cn(C)c(=O)n(-c2ccc(C[C@H](NC(=O)c3cc(F)c(NS(=O)(=O)c4cc5cc(NC(=O)C(C)(C)C)ccc5[nH]4)cc3F)C(=O)O)cn2)c1=O [Compound A76] have a reported pIC50 of at least 5?
[reply] rule not met

[ask] Hi team, for CN1CCc2c(n(C)c(=O)n(-c3ccc(C[C@H](NC(=O)c4cc(F)c(NS(=O)(=O)c5ccc(NC(=O)C(C)(C)C)cc5)cc4F)C(=O)O)cc3)c2=O)C1 [Compound A41] , is the recorded pIC50 at or above 5?
[reply] rule met

[ask] In plain terms: is recorded pIC50 at least 5 for Cc1c(C)n(C)c(=O)n(-c2ccc(C[C@H](NC(=O)c3cc(F)c(NS(=O)(=O)c4ccc(NC(=O)C5(c6ccccc6)CC5)cc4)cc3F)C(=O)O)cc2)c1=O [Compound A30] ?
[reply] rule met

[ask] Has Cc1cn(C)c(=O)n(-c2ccc(C[C@H](NC(=O)c3cc(F)c(NS(=O)(=O)c4ccc(NC(=O)C(C)(C)C)cc4)cc3F)C(=O)O)cc2)c1=O [Compound A37] a recorded pIC50 greater than or equal to 5?
[reply] rule met

[ask] Does Cc1cn(C)c(=O)n(-c2ccc(C[C@H](NC(=O)c3cc(F)c(NS(=O)(=O)c4ccc(NC(=O)C(C)(C)C(F)(F)F)cc4)cc3F)C(=O)O)cn2)c1=O [Compound A58] have a reported pIC50 of at least 5?
[reply] rule not met

[ask] API: above_or_equal(metric=pIC50, cutoff=5) for item Cn1ccc(=O)n(-c2ccc(C[C@H](NC(=O)c3cc(F)c(NS(=O)(=O)c4ccc(NC(=O)C5(C(F)(F)F)CC5)cc4)cc3F)C(=O)O)cn2)c1=O [Compound A55]
[reply] rule not met

[ask] Kindly determine if pIC50 recorded for Cn1c(=O)n(-c2ccc(C[C@H](NC(=O)c3cc(F)c(NS(=O)(=O)c4ccc(NC(=O)C(C)(C)C)c(F)c4)cc3F)C(=O)O)cc2)c(=O)c2ccncc21 [Compound A12] is above or exactly 5.
[reply] rule met

[ask] Decide: pIC50 of Cn1ccc(=O)n(-c2ccc(C[C@H](NC(=O)c3cc(F)c(NS(=O)(=O)c4ccc(NC(=O)C(C)(C)C)cc4)cc3F)C(=O)O)cc2)c1=O [Compound A42] >= 5?
[reply] rule met

[ask] Dear colleague, could you confirm whether Cc1c(C)n(C)c(=O)n(-c2ccc(C[C@H](NC(=O)c3cc(F)c(NS(=O)(=O)c4ccc(NC(=O)C5(C(F)(F)F)CC5)cc4)cc3F)C(=O)O)cc2)c1=O [Compound A20] has pIC50 at or above 5?
[reply] rule met

[ask] // inclusive: pIC50 at least 5? input: Cn1c(=O)n(-c2ccc(C[C@H](NC(=O)c3cc(F)c(NS(=O)(=O)c4ccc(NC(=O)C(C)(C)C)cn4)cc3F)C(=O)O)cn2)c(=O)c2ccncc21 [Compound A31]
[reply] rule met

[ask] Say whether Cn1c(=O)n(-c2ccc(C[C@H](NC(=O)c3cc(F)c(NS(=O)(=O)c4ccc(NC(=O)C5(C(F)(F)F)CC5)cc4)cc3F)C(=O)O)cc2)c(=O)c2ccncc21 [Compound A24] shows pIC50 of 5 or more.
[reply] rule met

[ask] hey, is pIC50 for this one >= 5? Cc1c(C)n(C)c(=O)n(-c2ccc(C[C@H](NC(=O)c3cc(F)c(NS(=O)(=O)c4ccc(NC(=O)C(C)(C)C)cc4)cc3F)C(=O)O)cc2)c1=O [Compound A8]
[reply] rule met

[ask] Exam item: decide whether the reported pIC50 for Cc1cn(C)c(=O)n(-c2ccc(C[C@H](NC(=O)c3cc(F)c(NS(=O)(=O)c4ccc(NC(=O)C(C)(C)CO)cc4)cc3F)C(=O)O)cn2)c1=O [Compound A63] is at least 5.
[reply] rule not met

[ask] Confirm if pIC50 reported for the compound Cn1c2c(c(=O)n(-c3ccc(C[C@H](NC(=O)c4cc(F)c(NS(=O)(=O)c5ccc(NC(=O)C(C)(C)C)cc5)cc4F)C(=O)O)cn3)c1=O)CCCC2 [Compound A52] is 5 or above.
[reply] rule met

[ask] For this compound, is measured pIC50 5 or higher? Cn1c(=O)n(-c2ccc(C[C@H](NC(=O)c3cc(F)c(NS(=O)(=O)c4ccc(NC(=O)C(C)(C)C)cc4)cc3F)C(=O)O)cn2)c(=O)c2ccncc21 [Compound A26]
[reply] rule met
